Attribute: Kinetic solubility
Experiment: Kinetic aqueous solubility by laser nephelometry
Format: physicochemical
# output: bare number, implied unit µM

compound	numericValue
CCC/N=C1\S/C(=C\c2ccc(C(=O)OCC3COC(=O)O3)cc2)C(=O)N1c1ccccc1O (stereo not shown) [Compound 12e]	79
CCC/N=C1\S/C(=C\c2ccc(C(=O)OCc3oc(=O)oc3C)cc2)C(=O)N1c1ccccc1O [Compound 12f]	79
CCC/N=C1\S/C(=C\c2ccc(C(=O)OCCN3CCOCC3)cc2)C(=O)N1c1ccccc1O [Compound 12d]	117
CCC/N=C1\S/C(=C\c2ccc(C(=O)OC)c(Cl)c2)C(=O)N1c1ccccc1C [Compound 5a]	39

stdin: Which Kinetic solubility is listed for CCC/N=C1\S/C(=C\c2ccc(C(=O)O)cc2)C(=O)N1c1ccccc1C [Compound 4a] ?
stdout: 163

stdin: Which Kinetic solubility is listed for CCC/N=C1\S/C(=C\c2ccc(C(=O)OC)cc2)C(=O)N1c1ccccc1C [Compound 5b] ?
stdout: 28

---

Assay: Human skin S9 stability
Assay type: in vitro ADME
Conditions: human skin S9 fraction, skin S9 over 180 mins in the presence of enzymatic cofactors
Attribute: half-life at 3 h
# output: bare number, implied unit min

molecule	experimentalEndpoint	numericValue
CCC/N=C1\S/C(=C\c2ccc(C(=O)OCCN3CCOCC3)cc2)C(=O)N1c1ccccc1O [Compound 12d]	half-life at 3 h	152
CCC/N=C1\S/C(=C\c2ccc(C(=O)OCC3COC(=O)O3)cc2)C(=O)N1c1ccccc1O (stereo not drawn) [Compound 12e]	half-life at 3 h	40

Switching to the query record.
stdin: Which half-life at 3 h is listed for CCC/N=C1\S/C(=C\c2ccc(C(=O)OCc3oc(=O)oc3C)cc2)C(=O)N1c1ccccc1O [Compound 12f] ?
stdout: 23

---

Experiment: Chromatographic hydrophobicity index (CHI) logD by reverse-phase HPLC
Assay type: physicochemical
experimentalEndpoint: CHI logD
Write no unit; give the number alone.

compound	CHI logD
CCC/N=C1\S/C(=C\c2ccc(C(=O)OCc3oc(=O)oc3C)cc2)C(=O)N1c1ccccc1O [Compound 12f]	3.3

stdin: Which CHI logD is listed for CCC/N=C1\S/C(=C\c2ccc(C(=O)NCC(=O)N(C)C)cc2)C(=O)N1c1ccccc1O [Compound 12a] ?
stdout: 1.9

stdin: Which CHI logD is listed for CCC/N=C1\S/C(=C\c2ccc(C(=O)NCCO)cc2)C(=O)N1c1ccccc1C [Compound 5d] ?
stdout: 2.3

stdin: Which CHI logD is listed for CCC/N=C1\S/C(=C\c2ccc(CCC(=O)OC)cc2)C(=O)N1c1ccccc1O [Compound 15b] ?
stdout: 3.5

stdin: Which CHI logD is listed for CCC/N=C1\S/C(=C\c2ccc(C(=O)OCCCO)cc2)C(=O)N1c1ccccc1O [Compound 12b] ?
stdout: 2.3

stdin: Which CHI logD is listed for CCC/N=C1\S/C(=C\c2ccc(C(=O)OCCN3CCOCC3)cc2)C(=O)N1c1ccccc1O [Compound 12d] ?
stdout: 3.0

stdin: Which CHI logD is listed for CCC/N=C1\S/C(=C\c2ccc(C(=O)OCC3COC(=O)O3)cc2)C(=O)N1c1ccccc1O (centres unmarked) [Compound 12e] ?
stdout: 2.8

stdin: Which CHI logD is listed for CCC/N=C1\S/C(=C\c2ccc(OC[C@H](O)CO)c(Cl)c2)C(=O)N1c1ccccc1C [Ponesimod, ponesimod, reference compound] ?
stdout: 3.1

stdin: Which CHI logD is listed for CCC/N=C1\S/C(=C\c2ccc(C(=O)OCCO)cc2)C(=O)N1c1ccccc1C [Compound 5c] ?
stdout: 3.4

---

Target: S1PR1 (Homo sapiens, UniProt P21453)
Construct: host or cells: CHO-K1 (PathHunter EDG1 β-Arrestin cell line)
Sequence (P21453 whole entry): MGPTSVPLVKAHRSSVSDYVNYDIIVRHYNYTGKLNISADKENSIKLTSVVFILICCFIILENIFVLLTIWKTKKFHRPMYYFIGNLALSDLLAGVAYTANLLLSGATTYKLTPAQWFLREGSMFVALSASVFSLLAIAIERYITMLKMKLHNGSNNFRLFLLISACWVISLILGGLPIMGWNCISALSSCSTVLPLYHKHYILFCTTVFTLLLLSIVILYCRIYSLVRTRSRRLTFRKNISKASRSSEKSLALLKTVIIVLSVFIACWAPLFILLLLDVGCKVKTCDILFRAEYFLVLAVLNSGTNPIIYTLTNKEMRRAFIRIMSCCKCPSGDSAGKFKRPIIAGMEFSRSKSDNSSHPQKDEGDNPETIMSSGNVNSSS
Assay: PathHunter CHO-K1 EDG1 β-Arrestin recruitment assay
Assay type: cell-based
Conditions: PathHunter β-Arrestin; n of 2, geometric mean; range in brackets
Attribute: S1PR1 pIC50

Here are 4 compounds together with their reported answers.
compound	result
CCC/N=C1\S/C(=C\c2ccc(OC[C@H](O)CO)c(Cl)c2)C(=O)N1c1ccccc1C [Ponesimod, ponesimod, reference compound]	7.9 (0)
CCC/N=C1\S/C(=C\c2ccc(C(=O)OC)c(Cl)c2)C(=O)N1c1ccccc1C	8.6 (0.1)
CCC/N=C1\S/C(=C\c2ccc(C(=O)OC)cc2)C(=O)N1c1ccccc1C	6.5 (0)
CCC/N=C1\S/C(=C\c2ccc(C(=O)OCCO)cc2)C(=O)N1c1ccccc1C	6.9 (0)

stdin: Which S1PR1 pIC50 is listed for "CCC/N=C1\S/C(=C\c2ccc(C(=O)NCCO)cc2)C(=O)N1c1ccccc1C" ?
stdout: 7.0 (0)

stdin: Which S1PR1 pIC50 is listed for "CCC/N=C1\S/C(=C\c2ccc(C(=O)O)cc2)C(=O)N1c1ccccc1C" ?
stdout: <6 (0)

---

Assay: in vitro
Type: in vitro ADME, human
Conditions: human, plasma
experimentalEndpoint: half-life

stdin: Which half-life is listed for "CCC/N=C1\S/C(=C\c2ccc(C(=O)O)cc2)C(=O)N1c1ccccc1O" ?
stdout: > 3 h

---

Experiment: Kinetic aqueous solubility by laser nephelometry
Type: physicochemical
experimentalEndpoint: Kinetic solubility (µM)
# output: bare number, implied unit µM

Here are 2 compounds together with their reported answers.
compound	numericValue
CCC/N=C1\S/C(=C\c2ccc(C(=O)OCCCO)cc2)C(=O)N1c1ccccc1O [Compound 12b]	183
CCC/N=C1\S/C(=C\c2ccc(CCC(=O)OC)cc2)C(=O)N1c1ccccc1O [Compound 15b]	79

Switching to the query record.
stdin: Which Kinetic solubility is listed for CCC/N=C1\S/C(=C\c2ccc(OC[C@H](O)CO)c(Cl)c2)C(=O)N1c1ccccc1C [Ponesimod, ponesimod, reference compound] ?
stdout: 110

---

Assay: in vitro
Type: in vitro ADME, human
Settings: human, plasma
Description: We selected human plasma stability as a model for human blood metabolism. […] S1PR1 activity was measured using a PathHunter β-Arrestin recruitment assay.[23]
Attribute: half-life

Here are 3 molecules together with their reported answers.
molecule	result
CCC/N=C1\S/C(=C\c2ccc(C(=O)OC)c(Cl)c2)C(=O)N1c1ccccc1C	> 3 h
CCC/N=C1\S/C(=C\c2ccc(C(=O)OCCN3CCOCC3)cc2)C(=O)N1c1ccccc1O [Compound 12d]	3 h
CCC/N=C1\S/C(=C\c2ccc(C(=O)OC)cc2)C(=O)N1c1ccccc1C	> 3 h

stdin: Which half-life is listed for CCC/N=C1\S/C(=C\c2ccc(CCC(=O)OC)cc2)C(=O)N1c1ccccc1O [Compound 15b] ?
stdout: > 3 h

---

Test: Chromatographic hydrophobicity index (CHI) logD by reverse-phase HPLC
Assay type: physicochemical
Attribute: CHI logD

stdin: Which CHI logD is listed for CCC/N=C1\S/C(=C\c2ccc(C(=O)OC)cc2)C(=O)N1c1ccccc1C [Compound 5b] ?
stdout: >4.4

stdin: Which CHI logD is listed for CCC/N=C1\S/C(=C\c2ccc(C(=O)OC)c(Cl)c2)C(=O)N1c1ccccc1C [Compound 5a] ?
stdout: >4.4

---

Test: in vitro
Assay type: in vitro ADME, human
Conditions: human, plasma
experimentalEndpoint: half-life

molecule	half-life
CCC/N=C1\S/C(=C\c2ccc(C(=O)OCc3oc(=O)oc3C)cc2)C(=O)N1c1ccccc1O [Compound 12f]	0.15 h
CCC/N=C1\S/C(=C\c2ccc(C(=O)OCCO)cc2)C(=O)N1c1ccccc1C	> 3 h
CCC/N=C1\S/C(=C\c2ccc(OC[C@H](O)CO)c(Cl)c2)C(=O)N1c1ccccc1C [Ponesimod, ponesimod, reference compound]	> 3 h
CCC/N=C1\S/C(=C\c2ccc(C(=O)NCC(=O)N(C)C)cc2)C(=O)N1c1ccccc1O [Compound 12a]	> 3 h
CCC/N=C1\S/C(=C\c2ccc(C(=O)OCC3COC(=O)O3)cc2)C(=O)N1c1ccccc1O (stereo not drawn) [Compound 12e]	1.02 h

stdin: Which half-life is listed for CCC/N=C1\S/C(=C\c2ccc(C(=O)OCC(O)CO)cc2)C(=O)N1c1ccccc1O (stereo not drawn) [Compound 12c] ?
stdout: > 3 h

stdin: Which half-life is listed for CCC/N=C1\S/C(=C\c2ccc(CC(=O)OC)cc2)C(=O)N1c1ccccc1O [Compound 15a] ?
stdout: > 3 h

stdin: Which half-life is listed for "CCC/N=C1\S/C(=C\c2ccc(C(=O)NCCO)cc2)C(=O)N1c1ccccc1C" ?
stdout: > 3 h

stdin: Which half-life is listed for CCC/N=C1\S/C(=C\c2ccc(C(=O)OCCCO)cc2)C(=O)N1c1ccccc1O [Compound 12b] ?
stdout: > 3 h

---

Attribute: CHI logD
Test: Chromatographic hydrophobicity index (CHI) logD by reverse-phase HPLC
Assay type: physicochemical
Write no unit; give the number alone.

Here are 2 compounds together with their reported answers.
compound	CHI logD
CCC/N=C1\S/C(=C\c2ccc(C(=O)O)cc2)C(=O)N1c1ccccc1C	1.0
CCC/N=C1\S/C(=C\c2ccc(CC(=O)OC)cc2)C(=O)N1c1ccccc1O [Compound 15a]	3.2

Switching to the query record.
stdin: Which CHI logD is listed for CCC/N=C1\S/C(=C\c2ccc(C(=O)OCC(O)CO)cc2)C(=O)N1c1ccccc1O (stereo not drawn) [Compound 12c] ?
stdout: 1.8
